- Experimental Target: UniProtKB O42713
- Protocol Notes: Inhibition of mushroom tyrosinase
Recorded Metric: IC50 (µM)
Enter your answer as a number in µM; do not include the unit.

C[C@@H]1O[C@@H](Oc2c(-c3ccc(O)c(O)c3)oc3cc(O)cc(O)c3c2=O)[C@H](O)[C@H](O)[C@H]1O
100

input: Quick one: IC50 for C[C@@H]1O[C@@H](Oc2c(-c3cc(O)c(O)c(O)c3)oc3cc(O)cc(O)c3c2=O)[C@H](O)[C@H](O)[C@H]1O ?
output: 320

---

Entries and their measured IC50 follow.
- Experimental Target: Tyrosinase (Agaricus bisporus, UniProt O42713)
- Sequence (O42713 whole entry): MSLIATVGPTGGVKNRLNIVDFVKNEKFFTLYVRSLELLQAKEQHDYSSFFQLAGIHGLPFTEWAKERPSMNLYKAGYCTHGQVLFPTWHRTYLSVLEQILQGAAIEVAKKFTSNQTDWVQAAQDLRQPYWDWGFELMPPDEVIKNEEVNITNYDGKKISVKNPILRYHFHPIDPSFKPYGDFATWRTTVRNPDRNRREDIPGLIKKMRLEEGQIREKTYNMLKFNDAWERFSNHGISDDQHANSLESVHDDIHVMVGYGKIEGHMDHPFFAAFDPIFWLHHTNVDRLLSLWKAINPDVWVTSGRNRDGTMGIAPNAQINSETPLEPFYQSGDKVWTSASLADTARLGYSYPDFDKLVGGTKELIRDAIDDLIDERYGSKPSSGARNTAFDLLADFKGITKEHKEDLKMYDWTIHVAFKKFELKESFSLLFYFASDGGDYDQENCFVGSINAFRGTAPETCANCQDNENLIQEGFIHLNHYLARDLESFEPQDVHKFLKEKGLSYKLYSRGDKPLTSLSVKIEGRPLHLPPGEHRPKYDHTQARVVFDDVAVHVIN
- Protocol Notes: Inhibition of mushroom tyrosinase using L-tyrosine as substrate pretreated for 5 mins followed by substrate addition measured over 30 mins by spectrophotometric method
Enter your answer as a number in µM; do not include the unit.

As a guide, the following entries are already answered.
C[C@@H]1O[C@@H](Oc2c(-c3ccc(O)c(O)c3)oc3cc(O)cc(O)c3c2=O)[C@H](O)[C@H](O)[C@H]1O
150
C[C@@H]1O[C@@H](Oc2c(-c3cc(O)c(O)c(O)c3)oc3cc(O)cc(O)c3c2=O)[C@H](O)[C@H](O)[C@H]1O
120
COc1c(O)cc(-c2oc3cc(O)cc(O)c3c(=O)c2O[C@@H]2O[C@@H](C)[C@H](O)[C@@H](O)[C@H]2O)cc1O
310

input: Quick one: IC50 for CC(=O)O[C@@H]1[C@@H](O)[C@@H](O)[C@H](Oc2c(-c3cc(O)c(O)c(O)c3)oc3cc(O)cc(O)c3c2=O)O[C@H]1C ?
output: 280

input: Now the compound COc1c(O)cc(-c2oc3cc(O)cc(O)c3c(=O)c2O[C@@H]2O[C@@H](C)[C@H](OC(C)=O)[C@@H](O)[C@H]2O)cc1O
output: 190

input: Now the compound CC(=O)O[C@@H]1[C@@H](O)[C@@H](OC(C)=O)[C@H](Oc2c(-c3cc(O)c(O)c(O)c3)oc3cc(O)cc(O)c3c2=O)O[C@H]1C
output: 520

input: Now the compound OC[C@H]1O[C@@H](Oc2c(O)cc(O)cc2O)[C@H](O)[C@@H](O)[C@@H]1O
output: 410

input: Now the compound CC(=O)O[C@@H]1[C@@H](OC(C)=O)[C@@H](O)[C@H](Oc2c(-c3cc(O)c(O)c(O)c3)oc3cc(O)cc(O)c3c2=O)O[C@H]1C
output: 180

input: Now the compound O=c1c(O)c(-c2ccc(O)c(O)c2)oc2cc(O)cc(O)c12
output: 240

input: Now the compound C[C@@H]1O[C@@H](OC[C@H]2O[C@@H](Oc3c(-c4ccc(O)c(O)c4)oc4cc(O)cc(O)c4c3=O)[C@H](O)[C@@H](O)[C@@H]2O)[C@H](O)[C@H](O)[C@H]1O
output: 130

---

- Experimental Target: Tyrosinase (Agaricus bisporus)
- Protocol Notes: Inhibition of mushroom tyrosinase using L-DOPA as substrate measured at 1 min interval by spectrophotometric method
Recorded Metric: IC50 (µM)
Enter your answer as a number in µM; do not include the unit.

input: Quick one: IC50 for C[C@@H]1O[C@@H](OC[C@H]2O[C@@H](Oc3c(-c4ccc(O)c(O)c4)oc4cc(O)cc(O)c4c3=O)[C@H](O)[C@@H](O)[C@@H]2O)[C@H](O)[C@H](O)[C@H]1O [RUTIN] ?
output: 70
